target: H5 HA A/Anhui/1/5 (on pseudotypes) (influenza A virus A/Anhui/1/5 (H5N1)); test: cell-based or functional assay
readout.name: Neutralization of HA-pseudotypes (IC90)

Example binders with recorded Neutralization of HA-pseudotypes (IC90):
binder	Neutralization of HA-pseudotypes (IC90)
FB139 (antibody, V domains shown) VH: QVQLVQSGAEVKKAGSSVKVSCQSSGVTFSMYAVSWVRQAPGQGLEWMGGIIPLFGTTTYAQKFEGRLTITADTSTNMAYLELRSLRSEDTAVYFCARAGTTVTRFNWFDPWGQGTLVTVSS VL: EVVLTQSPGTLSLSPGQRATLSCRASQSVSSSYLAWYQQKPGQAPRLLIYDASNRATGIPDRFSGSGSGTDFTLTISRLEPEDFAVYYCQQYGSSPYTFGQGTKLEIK	0.022 µg/mL
FC6 (antibody, V domains shown) VH: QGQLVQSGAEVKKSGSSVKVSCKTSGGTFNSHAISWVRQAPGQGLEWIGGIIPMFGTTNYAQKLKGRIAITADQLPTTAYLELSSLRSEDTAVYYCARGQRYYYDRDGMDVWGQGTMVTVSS VL: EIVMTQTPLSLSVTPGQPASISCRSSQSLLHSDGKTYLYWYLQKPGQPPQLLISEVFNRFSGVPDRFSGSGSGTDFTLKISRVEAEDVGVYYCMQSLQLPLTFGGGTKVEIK	0.112 µg/mL
FE43 (antibody, V domains shown) VH: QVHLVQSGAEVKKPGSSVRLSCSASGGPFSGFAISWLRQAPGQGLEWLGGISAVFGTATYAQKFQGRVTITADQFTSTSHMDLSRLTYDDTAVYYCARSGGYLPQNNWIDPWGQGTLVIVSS VL: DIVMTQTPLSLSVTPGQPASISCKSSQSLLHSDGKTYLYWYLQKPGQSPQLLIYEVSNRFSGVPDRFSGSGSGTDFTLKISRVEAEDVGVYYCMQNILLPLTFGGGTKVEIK	0.137 µg/mL

Moving on to the next binder.
Prompt: Returns the measured Neutralization of HA-pseudotypes (IC90) for the input binder. Input: FE53 (antibody, V domains shown) VH: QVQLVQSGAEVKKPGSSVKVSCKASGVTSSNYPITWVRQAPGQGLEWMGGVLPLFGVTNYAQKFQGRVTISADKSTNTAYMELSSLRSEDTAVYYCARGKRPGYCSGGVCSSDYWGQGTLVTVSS VL: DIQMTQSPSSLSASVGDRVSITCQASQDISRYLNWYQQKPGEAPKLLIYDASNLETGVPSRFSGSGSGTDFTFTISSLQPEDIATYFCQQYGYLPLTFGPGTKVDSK
Completion: 0.065 µg/mL
